- assay_details: inhibitors of TNFa-induced NFkB p65 translocation, primary screen, imaging, HUVEC, MLSMR starter and 10KST1 sets (AID 438);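 note: compound added about 3h40 before a 20 min TNFalpha stimulation; signal is the nuclear over cytoplasmic p65 intensity ratio per well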
- assay_context: HUVEC TNFa-induced p65 nuclear translocation; at 2 µM, active compounds read high, 0% TNFa-plus-vehicle, 100% no-TNFa wells
endpoint_name: inhibition (%)

compound: COc1cc(C(=O)Nc2cc(-c3ccccc3)[nH]n2)cc(OC)c1OC
endpoint_name: inhibition
val: -6.3

compound: O=S1(=O)CCC(N=Cc2cc(Br)ccc2O)C1 (stereo unspecified)
endpoint_name: inhibition
val: -13.1

compound: Cc1c(NC(=O)C(C)Oc2ncnc3ccccc23)c(=O)n(-c2ccccc2)n1C (stereo unspecified)
endpoint_name: inhibition
val: -1.7

compound: CCS(=O)(=O)N1CCC(C(=O)N2CCOCC2)CC1
endpoint_name: inhibition
val: -7.3

compound: COC(=O)C1=C(N)OC2=C(C(=O)CCC2)C1c1cccs1 (stereo unspecified)
endpoint_name: inhibition
val: 3.2

compound: COc1ccccc1CN1C(=O)CCC1(C)C(=O)NC1CCCCCC1 (stereo unspecified)
endpoint_name: inhibition
val: 5.3

compound: CCOC(=O)N1CCC2(CC1)CC(=O)c1c(ccc3oc(C(=O)O)c(C)c13)O2
endpoint_name: inhibition
val: -4.1

compound: CCCCc1cc(=O)oc2c(CN3CCCC3)c(O)c(Cl)cc12
endpoint_name: inhibition
val: -12.6

compound: O=C(O)c1ccc(C2SCC(=O)N2Cc2ccccc2)cc1 (stereo unspecified)
endpoint_name: inhibition
val: -0.4

compound: CCCn1c2c(c(O)c(C(=O)Nc3ccc(C)cn3)c1=O)CCCC2
endpoint_name: inhibition
val: 9.8

compound: CC(C)=CC(=O)OCC(=O)NC(=O)NC(C)(C)C
endpoint_name: inhibition
val: 13.1

====

In this section, each of the compounds is paired with its reported inhibition.
- assay_details: blockers of RIG-like receptor reporter activation – cell-based, Sendai virus stimulus, luciferase, 10K MLSCN set, TLR/RLR signaling modifier project, primary screen (AID 602276);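 note: firefly luciferase from ISG56 promoter only with Renilla not read in this screen; 0% = Sendai virus plus DMSO and 100% = medium plus DMSO without virus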
- assay_context: HEK293 RL24 IRF3 luciferase reporter, at 10 µM, active compounds read high
endpoint_name: inhibition (%)

compound: COc1ccccc1NC(=O)NCc1ccc2c(c1)OCO2
val: 10.7
//
compound: COc1ccc(C/C(O)=C(\C#N)c2nc3ccccc3s2)cc1
val: 0.322
//
compound: Cc1ccc2nc(/C(C#N)=N/O)[nH]c2c1
val: 6.84
//
compound: CCOC(=O)c1[nH]c(C)c(C(=O)N(C)C)c1C
val: -36.1
//
compound: CCCCCCNC(=O)c1c(N)n(/N=C/c2ccco2)c2nc3ccccc3nc12
val: 11.1
//
compound: O=C(CN1CCSCC1)N1CCc2[nH]c3ccc(Br)cc3c2C1
val: 10.7
//
compound: FC(F)Oc1cccc2cccnc12
val: 10.2
//
compound: CC(n1cnnn1)C12CC3CC(CC(C3)C1)C2 (stereo not given)
val: 16.5
//
compound: Cc1c(NC(=O)CN2c3cccc4cccc(c34)S2(=O)=O)c(=O)n(-c2ccccc2)n1C
val: 8.89
//
compound: CCN(CC)CCOC(=O)c1cccc(OC)c1
val: 6.23
//
compound: COCCCNC(=O)CCCn1c(=O)c2ccccc2n(CC(=O)Nc2c(C)cccc2C)c1=O
val: 8.62
//
compound: CCCCc1nc2ccccc2n2cc3c(=O)n(C)c(=O)n(C)c3c12
val: 14.3
//
compound: CC(=O)Nc1ccc(N2CCN(Cc3ccccc3F)CC2)cc1
val: 8.54
//
compound: COC(=O)c1cnn2c(C(F)(F)F)cc(-c3ccco3)nc12
val: 8.92
//
compound: Cc1cc(Cl)ccc1OCCCC(=O)N1CCOCC1
val: -29.3
//
compound: c1ccc(-c2nnc(CN3CCC4(CC3)OCCO4)o2)cc1
val: 8.62
//
compound: COc1ccc2nc(NC(=O)CSc3nnc(-c4ccoc4C)n3C)sc2c1
val: -11.5
//
compound: COc1ccc(C2C(C#N)=C(C)NC3=C2C(=O)CC(C)(C)C3)c(OC)c1 (stereo not given)
val: 15.1
//
compound: CC1=C(C(N)=O)C(c2ccccn2)n2nc(-c3ccccc3Cl)nc2N1 (stereo not given)
val: -2.04
//
compound: O=C1c2ccccc2C(Nc2ccc3c(c2)OCO3)N1Cc1ccc2c(c1)OCO2 (stereo not given)
val: -3.95
//
compound: CCCNC(=O)C1CC(=O)N(c2ccc(OCC(=O)Nc3cc(C)cc(C)c3)cc2)C1 (stereo not given)
val: -3.19
//
compound: CCCCOc1ccc(C(=O)Nc2ccc(N3CCN(C(=O)C(C)C)CC3)cc2)cc1
val: 13.8
//
compound: CCN(C(=O)c1cccs1)c1nnc(-c2ccncc2)s1
val: -7.04
//
compound: O=C(CCC(=O)N(c1cccc(F)c1)C(C(=O)NC1CCCC1)c1ccncc1)Nc1cccnc1 (stereo not given)
val: 18.8
//
compound: CCc1n[nH]c2c1C(=O)CC(C)(C)C2
val: -8.61
//
compound: Cc1noc(C)c1C(=O)N1CCN(C(=O)c2sc3cc(Cl)ccc3c2Cl)CC1
val: 8.91
//
compound: CC(C)(CO)NC(=O)CCCOc1ccc(Cl)cc1Cl
val: -27.2
//
compound: Cc1nc2ccc(NC(=O)N3CCC(c4ccccc4)C3)cc2nc1C (stereo not given)
val: -0.553
//
compound: Cc1cc(=O)n2[nH]c(-c3ccc(Cl)cc3)cc2n1
val: -16.8
//
compound: COc1ccc(N2C(=O)C(Cl)=C(Nc3c(C)n(C)n(-c4ccccc4)c3=O)C2=O)cc1
val: 7.07
//
compound: O=C(c1ccco1)N1CCN(S(=O)(=O)c2ccc(C3CCCCC3)cc2)CC1
val: -0.0986
//
compound: CC1Cc2nc(SCC(N)=O)n(Cc3ccccc3)c(=O)c2S1 (stereo not given)
val: -2.11
//
compound: Cn1c(SCc2ccccc2)nnc1C1CCCNC1 (stereo not given)
val: 10.3
//
compound: Cc1ccc2nc(NC(=O)Cn3cc4c(n3)CCCCC4)sc2c1
val: -7.98
//
compound: COc1ccc(C(=O)CSc2nc(C)cc(=O)[nH]2)cc1
val: 14.8
//
compound: COC(=O)c1[nH]c2ccc(C)cc2c1NC(=O)CN1CCN(C(=O)c2ccccc2)CC1
val: 18.9
//
compound: N#Cc1c(-c2ccccc2)nc(SCc2nc(N)nc(N3CCCCC3)n2)[nH]c1=O
val: 14.8
//
compound: CCOC(=O)Cn1c(S(=O)(=O)Cc2ccccc2)nc2ccccc21
val: 9.42
//
compound: CCOC(=O)N1CCC2(CC1)CC(=O)c1c(ccc3oc(C(=O)O)c(C)c13)O2
val: 0.598
//
compound: CCOC(=O)C1=C(c2ccccc2)N2CCS(=O)(=O)N=C2S1
val: 16.1
//
compound: Cc1nc2cc(NC(=O)N3c4ccccc4CC3C)ccc2o1 (stereo not given)
val: 1.7
//
compound: O=C(OCCN=C1NS(=O)(=O)c2ccccc21)C1CC(=O)N(c2ccc(Cl)cc2)C1 (stereo not given)
val: 6.2
//
compound: CCOC(=O)N1CCN(c2cc3nccnc3cc2F)CC1
val: 10.4
//
compound: COc1cc(=O)[nH]c(SCc2c(F)c(F)c(F)c(F)c2F)n1
val: -4.06
//
compound: CCC(C)(C)NC(=O)C(OC(=O)c1ccco1)c1ccccc1OC (stereo not given)
val: 0.26
